- System: OVCAR3 cells
- Test Method Notes: MTT proliferation assay, OVCAR3;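 also: compound given as an 8- or 10-point series, one day after plating, with exposure covering roughly 3-4 cell doublings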
- Assay type: cell-based
- Measurement Conditions: 5 days compound exposure, 1:3 serial dilution starting at 10 μM
*1 amine or outer side, *2 acyl side, *3 side chain or, on linkers, in order; H or OH if unused. Where a SMILES comes first, the peptide text is derived from it. Bridges are numbered along the chain shown (N, C = ends). [ ]: non-standard residue; d: D form. The star is where a group is joined. NMehhhLys(Me) = CN([C@@H](CCCCCCCN(C)[*:3])C(=O)[*:2])[*:1]; X22 = CN([C@@H](Cc1cc(Cl)ccc1-c1cnn(C)c1)C(=O)[*:2])[*:1]; NMe(hhhLys) = CN([C@@H](CCCCCCCN[*:3])C(=O)[*:2])[*:1]; X28 = CN([C@@H](Cc1cc(Cl)cnc1OC1CCC1)C(=O)[*:2])[*:1]; Cyclobutanecarbonyl(1-CF3) = O=C(C1(C(F)(F)F)CCC1)*; Pro(trans-4-F) = O=C(O)[C@@H]1C[C@@H](F)CN1; Pivaloyl(3,3,3-F3) = CC(C)(C(=O)*)C(F)(F)F; Gly(cPr) = N[C@H](C(=O)O)C1CC1
Measured Endpoint: log10 of GI50 (log10 of the value in nM)

{"Molecule": "CC(C)C[C@@H]1NC(=O)[C@@H](N(C)C(=O)[C@@H](NC(=O)[C@@H]2C[C@@H](F)CN2C(=O)C2(C(F)(F)F)CC(F)(F)C2)C2CC2)CC=CCCCCN(C)C(=O)[C@H](Cc2cc(F)ccc2-c2cnn(S(C)(=O)=O)c2)N(C)C1=O", "log10 of GI50": 1.78}
{"Molecule": "CC(C)C[C@@H]1NC(=O)[C@@H](N(C)C(=O)[C@@H](NC(=O)[C@@H]2C[C@@H](F)CN2C(=O)[C@@]2(C(F)(F)F)CCCCO2)C2CC2)C/C=C\\CCCCN(C)C(=O)[C@H](Cc2cc(Cl)ccc2-c2cnn(C)c2)N(C)C1=O", "log10 of GI50": 1.00}
{"Molecule": "CC(C)C[C@@H]1NC(=O)[C@@H](N(C)C(=O)[C@@H](NC(=O)[C@@H]2C[C@@H](F)CN2C(=O)C2(C(F)(F)F)CC(F)(F)C2)C2CC2)CC=CCCCCNC(=O)[C@H](Cc2cc(Cl)ccc2Cl)N(C)C1=O (single isomer, unassigned) [Example 6-P1]", "log10 of GI50": 1.95}
{"Molecule": "CC(C)C[C@@H]1NC(=O)[C@@H](NC(=O)CNC(=O)[C@@H]2C[C@@H](F)CN2C(=O)C2(C(F)(F)F)CC2)CC=CCCCCNC(=O)[C@H](Cc2cc(Cl)ccc2Cl)N(C)C1=O", "log10 of GI50": 2.86}
{"Molecule": "Cc1nnc(-c2ccc(Cl)cc2C[C@H]2C(=O)NCCCCC=CC[C@H](N(C)C(=O)[C@@H](NC(=O)[C@@H]3C[C@@H](F)CN3C(=O)C3(C(F)(F)F)CCC3)C3CC3)C(=O)N[C@@H](CC(C)C)C(=O)N2C)o1 (single isomer, unassigned) [Example 117-P2]", "log10 of GI50": 1.78}
{"Molecule": "CC(C)C[C@@H]1NC(=O)[C@@H](N(C)C(=O)[C@@H](NC(=O)[C@@H]2C[C@@H](F)CN2C(=O)C(C)(C)C(F)(F)F)C2CC2)CCCCCCCN(C)C(=O)[C@H](Cc2cc(Cl)ccc2-c2cnn(C)c2)N(C)C1=O [Example 204] ({Pivaloyl(3,3,3-F3)}-[Pro(trans-4-F)][Gly(cPr)][NMehhhLys(Me)]L[X22]; lactam 3-C)", "log10 of GI50": 1.00}
{"Molecule": "CC(C)C[C@@H]1NC(=O)[C@@H](N(C)C(=O)[C@@H](NC(=O)[C@@H]2C[C@@H](F)CN2C(=O)C2(C(F)(F)F)CCC2)C2CC2)CCCCCCCNC(=O)[C@H](Cc2cc(Cl)cnc2OC2CCC2)N(C)C1=O [Example 141] ({Cyclobutanecarbonyl(1-CF3)}-[Pro(trans-4-F)][Gly(cPr)][NMe(hhhLys)]L[X28]; lactam 3-C)", "log10 of GI50": 2.28}
